B1: DLC1 (parent)
chain: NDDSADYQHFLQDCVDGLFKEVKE

# Variants of: B1
# ASSAY OVERVIEW: protein stability index of a GFP-peptide fusion (GPS, HEK-293T) (PSI 1-6); higher = more stable;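 further: lentivirally expressed fusions sorted by FACS into six bins by GFP to DsRed ratio, PSI derived from sequencing read proportions per bin multiplied by bin number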
# MEASUREMENT SETUP: c terminus: a fixed tail appended
Recorded protein stability index by entry
REPORTED METRIC: protein stability index

NDDSADYQHELQDCVDGLFKEVKE [F10E]    3.75
NDDSADYRHFLQDCVDGLFKEVKE [Q8R]    2.08
NDDSADYQHFLQDCVDGLFKEVQE [K23Q]    2.75
NDDSADYQHFLQDCVDGLRKEVKE [F19R]    4.46
NDDSADYQHFLQDCVDGLFKEVPE [K23P]    4.57
NDDSADYQHFLQDCVDGLFKEVYE [K23Y]    2.35
NDDVADYQHFLQDCVDGLFKEVKE [S4V]    2.57
NDDSADYQHFLQDCVDGLFKSVKE [E21S]    3.27
NDHSADYQHFLQDCVDGLFKEVKE [D3H]    2.17
NDDSADYQHFLQDCVDGLFKMVKE [E21M]    2.24
SDDSADYQHFLQDCVDGLFKEVKE [N1S]    2.6
EDDSADYQHFLQDCVDGLFKEVKE [N1E]    3
NDDSADYQHFLQDKVDGLFKEVKE [C14K]    4.78
NDDSAVYQHFLQDCVDGLFKEVKE [D6V]    2.24
NDDSADYQHFLQDCVDGLFGEVKE [K20G]    3.84
NDDSADYQQFLQDCVDGLFKEVKE [H9Q]    2.23
NDDSADYFHFLQDCVDGLFKEVKE [Q8F]    2.65
NDDSADYQHFLQDCVDGLFKEVKY [E24Y]    1.66
NDDSADYQHFLQDCVDGLFKEVME [K23M]    2.01
NDDSADYQHFLQDCVDGLFQEVKE [K20Q]    3.23
NDDSCDYQHFLQDCVDGLFKEVKE [A5C]    2.05
TDDSADYQHFLQDCVDGLFKEVKE [N1T]    2.6
